The origin of these recorded values is patent US10039764B2.

Biological target: PDE4B (Homo sapiens)
measuredProperty: IC50
In your response, put the unit directly after the numeric value.

So what does the record say about IC50 for COc1cc2ncnc(N3CC[C@@H](Oc4cnc5ccccc5n4)C3)c2cc1OC [PQ-10] ? 17.8 µM

---

Target: PDE3A (Homo sapiens)
Construct: purchased BPS Biosciences
Assay: IMAP fluorescence polarization PDE assay, PDE3A
Assay type: biochemical
Details: substrate cAMP; read-out: Phosphodiesterase Inhibition PDE3A cAMP IC50
measuredProperty: pIC50
Numbers only, as −log10 of the molar value.

So what does the record say about pIC50 for `COc1cc2ncnc(N3CC[C@@H](Oc4cnc5ccccc5n4)C3)c2cc1OC` ? 6.33

---

System: HCT116 human colon tumor cells
Test: Growth assay (Cell Titer Glo), HCT116
Assay type: cell-based
Conditions: Homo sapiens, HCT-116; 72 hours of treatment; PDE isozyme inhibitor table; read-out: Growth Inhibition (IC50/μM) HCT116
measuredProperty: IC50 (µM)
Give bare numbers, in µM.

So what does the record say about IC50 for CN1CC(=O)N2[C@H](c3ccc4c(c3)OCO4)c3[nH]c4ccccc4c3C[C@@H]2C1=O [Tadalafil, tadalafil] ? 38

---

Molecular target: PDE2A (Homo sapiens)
Construct: purchased BPS Biosciences
Sequence (O00408 whole entry): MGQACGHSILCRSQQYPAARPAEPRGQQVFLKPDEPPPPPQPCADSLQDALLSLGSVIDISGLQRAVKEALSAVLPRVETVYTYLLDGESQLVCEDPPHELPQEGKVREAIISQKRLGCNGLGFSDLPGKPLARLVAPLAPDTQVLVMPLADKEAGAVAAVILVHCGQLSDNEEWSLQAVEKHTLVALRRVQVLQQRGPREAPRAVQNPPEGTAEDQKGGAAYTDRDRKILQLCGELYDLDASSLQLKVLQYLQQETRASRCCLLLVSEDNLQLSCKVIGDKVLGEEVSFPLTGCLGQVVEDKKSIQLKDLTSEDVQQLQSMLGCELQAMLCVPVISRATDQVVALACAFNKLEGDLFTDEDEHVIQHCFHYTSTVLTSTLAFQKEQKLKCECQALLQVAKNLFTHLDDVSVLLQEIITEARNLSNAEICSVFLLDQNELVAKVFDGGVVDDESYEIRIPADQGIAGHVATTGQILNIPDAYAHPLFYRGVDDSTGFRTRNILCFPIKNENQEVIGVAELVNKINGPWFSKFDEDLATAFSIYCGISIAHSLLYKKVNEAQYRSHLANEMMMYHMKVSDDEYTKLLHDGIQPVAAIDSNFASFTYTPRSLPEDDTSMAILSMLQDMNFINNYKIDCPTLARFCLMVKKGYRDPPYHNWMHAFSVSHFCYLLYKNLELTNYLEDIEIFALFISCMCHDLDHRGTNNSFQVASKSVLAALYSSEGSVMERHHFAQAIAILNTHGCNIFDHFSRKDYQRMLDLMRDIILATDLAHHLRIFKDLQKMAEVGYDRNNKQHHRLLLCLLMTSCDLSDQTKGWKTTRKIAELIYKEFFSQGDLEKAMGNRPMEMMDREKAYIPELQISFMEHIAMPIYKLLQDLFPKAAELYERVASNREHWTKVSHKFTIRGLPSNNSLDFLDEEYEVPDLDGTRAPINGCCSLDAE
Test: IMAP fluorescence polarization PDE assay, PDE2A
Assay type: biochemical
Conditions: substrate cAMP; read-out: Phosphodiesterase Inhibition PDE2A cAMP IC50
measuredProperty: IC50 (µM)
One number for each entry, in µM.

So what does the record say about IC50 for `COc1cc2ncnc(N3CC[C@@H](Oc4cnc5ccccc5n4)C3)c2cc1OC` ? 7

---

System: HCT116 human colon tumor cells
Assay: Growth assay (Cell Titer Glo), HCT116
Assay type: cell-based
Details: Homo sapiens, HCT-116; 72 hours of treatment, FIG. 11; read-out: IC50, growth of HCT116 colon tumor cells
measuredProperty: IC50 (µM)
Answers are plain numbers, in µM.

COc1ccc(Cc2nccc3cc(OC)c(OC)cc23)cc1OC    9

Continue with the compound presented below.
Item `COc1cc2ncnc(N3CC[C@@H](Oc4cnc5ccccc5n4)C3)c2cc1OC` with HCT116 human colon tumor cells - IC50? 0.29

---

Test system: HCT116 human colon tumor cells
Test: Growth assay (Cell Titer Glo), HCT116
Assay type: cell-based
Details: Homo sapiens, HCT-116; PDE10 Inhibitors table; read-out: Growth Inhibition IC50, HCT-116
Give measured IC50 for each item. Keep answers brief.
Give bare numbers, in µM.

Previously resolved entries follow.
Cn1cc(-c2ccncc2)c(-c2ccc(OCc3ccc4ccccc4n3)cc2)n1 [PF-2545920]    8.4
COc1cc2ncnc(N3CC[C@@H](Oc4cnc5ccccc5n4)C3)c2cc1OC [PQ-10]    0.201
COc1ccc(Cc2nccc3cc(OC)c(OC)cc23)cc1OC [Papaverine, papaverine]    6.7

Continue with the compound presented below.
So what does the record say about IC50 for Cc1nc2c3cc(Br)ccc3nc(SCC#N)n2n1 [Compound no. 5] ? 9.93

---

System: SW480 human colon tumor cells
Experiment: Growth assay (Cell Titer Glo), SW480
Format: cell-based
Settings: PDE10 Inhibitors table, read-out: Growth Inhibition IC50, SW-480
Give measured IC50 for each item. Keep answers brief.
One number for each entry, in µM.

Previously resolved entries follow.
Cn1cc(-c2ccncc2)c(-c2ccc(OCc3ccc4ccccc4n3)cc2)n1    3.7
COc1ccc(Cc2nccc3cc(OC)c(OC)cc23)cc1OC    11.2

Continue with the compound presented below.
Item `COc1cc2ncnc(N3CC[C@@H](Oc4cnc5ccccc5n4)C3)c2cc1OC` with SW480 human colon tumor cells - IC50? 0.199

---

Target: PDE3B (Homo sapiens, UniProt Q13370)
Sequence (Q13370 whole entry): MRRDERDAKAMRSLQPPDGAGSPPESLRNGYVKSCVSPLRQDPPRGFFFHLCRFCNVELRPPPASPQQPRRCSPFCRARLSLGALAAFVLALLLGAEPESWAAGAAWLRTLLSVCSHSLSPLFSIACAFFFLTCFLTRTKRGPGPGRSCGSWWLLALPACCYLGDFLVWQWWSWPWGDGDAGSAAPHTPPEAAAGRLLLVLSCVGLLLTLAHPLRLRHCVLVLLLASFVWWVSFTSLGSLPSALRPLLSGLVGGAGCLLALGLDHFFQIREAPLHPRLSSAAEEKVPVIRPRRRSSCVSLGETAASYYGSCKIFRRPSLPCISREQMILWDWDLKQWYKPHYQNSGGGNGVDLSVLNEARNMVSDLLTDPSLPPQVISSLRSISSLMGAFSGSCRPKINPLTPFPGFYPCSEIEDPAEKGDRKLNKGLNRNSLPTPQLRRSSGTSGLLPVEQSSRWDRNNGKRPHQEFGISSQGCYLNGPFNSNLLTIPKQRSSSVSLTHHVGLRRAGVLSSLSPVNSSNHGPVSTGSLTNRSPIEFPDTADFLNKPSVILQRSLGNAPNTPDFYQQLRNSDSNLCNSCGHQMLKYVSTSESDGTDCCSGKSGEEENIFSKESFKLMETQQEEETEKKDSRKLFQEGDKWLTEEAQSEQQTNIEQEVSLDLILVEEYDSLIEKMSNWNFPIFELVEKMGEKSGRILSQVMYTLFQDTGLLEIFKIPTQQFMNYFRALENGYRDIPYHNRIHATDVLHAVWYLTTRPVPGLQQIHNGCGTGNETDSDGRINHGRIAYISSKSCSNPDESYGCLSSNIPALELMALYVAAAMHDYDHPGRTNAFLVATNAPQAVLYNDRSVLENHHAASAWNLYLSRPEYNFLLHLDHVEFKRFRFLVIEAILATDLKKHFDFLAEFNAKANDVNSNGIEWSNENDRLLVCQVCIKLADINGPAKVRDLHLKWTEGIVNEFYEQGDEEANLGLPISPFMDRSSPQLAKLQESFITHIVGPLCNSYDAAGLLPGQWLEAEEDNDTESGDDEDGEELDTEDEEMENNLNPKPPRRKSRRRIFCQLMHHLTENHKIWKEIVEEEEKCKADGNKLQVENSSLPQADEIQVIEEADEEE
measuredProperty: IC50 (nM)
Answers are plain numbers, in nM.

So what does the record say about IC50 for COc1cc2ncnc(N3CC[C@@H](Oc4cnc5ccccc5n4)C3)c2cc1OC [PQ-10] ? 273

---

Biological target: PDE1A (Homo sapiens, UniProt P54750)
Construct: purchased BPS Biosciences
Sequence (P54750 whole entry): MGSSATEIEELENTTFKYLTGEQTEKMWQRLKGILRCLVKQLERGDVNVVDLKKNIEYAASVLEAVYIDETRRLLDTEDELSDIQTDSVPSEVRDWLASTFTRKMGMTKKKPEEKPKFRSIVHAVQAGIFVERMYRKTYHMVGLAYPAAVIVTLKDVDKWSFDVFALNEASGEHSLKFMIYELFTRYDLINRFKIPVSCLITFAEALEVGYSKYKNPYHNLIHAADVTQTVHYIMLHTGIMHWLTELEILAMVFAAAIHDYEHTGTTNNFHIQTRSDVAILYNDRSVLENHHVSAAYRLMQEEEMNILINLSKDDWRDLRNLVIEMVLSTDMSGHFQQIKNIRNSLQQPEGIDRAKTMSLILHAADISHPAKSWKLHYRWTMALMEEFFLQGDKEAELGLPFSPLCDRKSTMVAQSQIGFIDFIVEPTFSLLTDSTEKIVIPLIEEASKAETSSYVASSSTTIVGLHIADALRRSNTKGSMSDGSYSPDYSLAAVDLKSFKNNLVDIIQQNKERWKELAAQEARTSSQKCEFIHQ
Assay: IMAP fluorescence polarization PDE assay, PDE1A
Type: biochemical
Conditions: substrate cGMP; read-out: Phosphodiesterase Inhibition PDE1A cGMP IC50
measuredProperty: IC50 (µM)
Answers are plain numbers, in µM.

Item `COc1cc2ncnc(N3CC[C@@H](Oc4cnc5ccccc5n4)C3)c2cc1OC` with PDE1A (Homo sapiens, UniProt P54750) - IC50? 8.8

---

Tested on: HCT116 human colon tumor cells
Assay: Growth assay (Cell Titer Glo), HCT116
Assay type: cell-based
Conditions: Homo sapiens, HCT-116, read-out: Growth Inhibition IC50, HCT-116
measuredProperty: IC50 (µM)
One number for each entry, in µM.

So what does the record say about IC50 for COc1cc(/C=N/NC(=O)C(OC)c2ccc(-n3cccn3)cc2)cc(OC)c1Br (stereo not shown) [Compound no. 4] ? 3.13

---

Molecular target: PDE10A (Homo sapiens, UniProt Q9Y233)
Construct: other: substrate cGMP; recombinant enzyme; other: substrate cAMP
Sequence (Q9Y233 290-1055 limits assumed): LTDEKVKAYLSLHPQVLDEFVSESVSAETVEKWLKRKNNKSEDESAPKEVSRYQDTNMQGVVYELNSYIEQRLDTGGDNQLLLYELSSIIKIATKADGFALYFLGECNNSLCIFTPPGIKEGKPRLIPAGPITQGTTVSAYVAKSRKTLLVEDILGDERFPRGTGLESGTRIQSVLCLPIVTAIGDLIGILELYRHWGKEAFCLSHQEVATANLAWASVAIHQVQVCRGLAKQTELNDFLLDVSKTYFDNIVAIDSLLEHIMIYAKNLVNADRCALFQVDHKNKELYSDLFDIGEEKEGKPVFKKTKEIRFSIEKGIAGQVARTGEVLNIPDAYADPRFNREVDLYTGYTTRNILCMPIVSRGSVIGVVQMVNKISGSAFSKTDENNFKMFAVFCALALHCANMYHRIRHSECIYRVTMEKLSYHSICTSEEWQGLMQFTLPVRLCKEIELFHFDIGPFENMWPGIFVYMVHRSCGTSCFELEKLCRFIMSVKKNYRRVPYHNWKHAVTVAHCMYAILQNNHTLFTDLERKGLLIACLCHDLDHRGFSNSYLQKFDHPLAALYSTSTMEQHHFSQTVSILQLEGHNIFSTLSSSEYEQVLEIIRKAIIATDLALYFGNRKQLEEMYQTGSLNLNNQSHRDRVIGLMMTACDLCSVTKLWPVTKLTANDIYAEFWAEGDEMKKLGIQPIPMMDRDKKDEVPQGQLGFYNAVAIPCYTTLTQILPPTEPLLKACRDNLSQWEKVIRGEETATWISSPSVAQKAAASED
Assay: IMAP fluorescence polarization PDE assay, PDE10A
Type: biochemical
Conditions: substrate cAMP; recombinant enzyme; read-out: Phosphodiesterase Inhibition PDE10A cAMP IC50
measuredProperty: pIC50
Numbers only, as −log10 of the molar value.

So what does the record say about pIC50 for Cc1nc2c3cc(Br)ccc3nc(SCC#N)n2n1 [Compound no. 5] ? 8.06

---

Tested on: normal colonocytes (NCM460)
Assay: Growth assay (Cell Titer Glo), normal colonocytes NCM460
Format: cell-based, human
Details: Homo sapiens, NCM460; 72 hours of treatment, FIG. 11; read-out: IC50, growth of normal colonocytes (NCM460)
measuredProperty: IC50 (µM)
Numbers only, in µM.

Your task in this section: give IC50 for each listed record.
1. COc1cc2ncnc(N3CC[C@@H](Oc4cnc5ccccc5n4)C3)c2cc1OC
2. COc1ccc(Cc2nccc3cc(OC)c(OC)cc23)cc1OC

1: 8.4; 2: 118

---

Biological target: PDE10A (Homo sapiens, UniProt Q9Y233)
Construct: other: substrate cGMP; recombinant enzyme; other: substrate cAMP
Experiment: IMAP fluorescence polarization PDE assay, PDE10A
Assay type: biochemical
Conditions: Phosphodiesterase Inhibition PDE10A cGMP IC50, substrate cGMP; recombinant enzyme
measuredProperty: pIC50
Numbers only, as −log10 of the molar value.

Item `COc1cc2ncnc(N3CC[C@@H](Oc4cnc5ccccc5n4)C3)c2cc1OC` with PDE10A (Homo sapiens, UniProt Q9Y233) - pIC50? 8.41

---

Target: PDE11A (Homo sapiens, UniProt Q9HCR9)
Construct: purchased BPS Biosciences
Experiment: IMAP fluorescence polarization PDE assay, PDE11A
Type: biochemical
Conditions: substrate cGMP; read-out: Phosphodiesterase Inhibition PDE11A cGMP IC50
measuredProperty: IC50 (µM)
Answers are plain numbers, in µM.

So what does the record say about IC50 for `COc1cc2ncnc(N3CC[C@@H](Oc4cnc5ccccc5n4)C3)c2cc1OC` ? 13.2

---

Give measured pIC50 for each item. Keep answers brief.
Test system: HT29 human colon tumor cells
Test: Growth assay (Cell Titer Glo), HT29
Type: cell-based
Conditions: Homo sapiens, HT-29; PDE10 Inhibitors table; read-out: Growth Inhibition IC50, HT-29
One number for each entry, as −log10 of the molar value.

Your task in this section: give pIC50 for each listed record.
1. COc1ccc(Cc2nccc3cc(OC)c(OC)cc23)cc1OC
2. COc1cc2ncnc(N3CC[C@@H](Oc4cnc5ccccc5n4)C3)c2cc1OC
3. Cn1cc(-c2ccncc2)c(-c2ccc(OCc3ccc4ccccc4n3)cc2)n1

1. 4.61
2. 6.71
3. 6.02

---

System: SW480 human colon tumor cells
Experiment: Growth assay (Cell Titer Glo), SW480
Assay type: cell-based
Conditions: 72 hours of treatment, FIG. 11C, read-out: IC50, growth of SW-480 colon tumor cells
measuredProperty: IC50
In your response, put the unit directly after the numeric value.

So what does the record say about IC50 for COc1cc2ncnc(N3CC[C@@H](Oc4cnc5ccccc5n4)C3)c2cc1OC [PQ-10] ? 220 nM

---

Target: PDE3A (Homo sapiens, UniProt Q14432)
Construct: purchased BPS Biosciences
Sequence (Q14432 whole entry): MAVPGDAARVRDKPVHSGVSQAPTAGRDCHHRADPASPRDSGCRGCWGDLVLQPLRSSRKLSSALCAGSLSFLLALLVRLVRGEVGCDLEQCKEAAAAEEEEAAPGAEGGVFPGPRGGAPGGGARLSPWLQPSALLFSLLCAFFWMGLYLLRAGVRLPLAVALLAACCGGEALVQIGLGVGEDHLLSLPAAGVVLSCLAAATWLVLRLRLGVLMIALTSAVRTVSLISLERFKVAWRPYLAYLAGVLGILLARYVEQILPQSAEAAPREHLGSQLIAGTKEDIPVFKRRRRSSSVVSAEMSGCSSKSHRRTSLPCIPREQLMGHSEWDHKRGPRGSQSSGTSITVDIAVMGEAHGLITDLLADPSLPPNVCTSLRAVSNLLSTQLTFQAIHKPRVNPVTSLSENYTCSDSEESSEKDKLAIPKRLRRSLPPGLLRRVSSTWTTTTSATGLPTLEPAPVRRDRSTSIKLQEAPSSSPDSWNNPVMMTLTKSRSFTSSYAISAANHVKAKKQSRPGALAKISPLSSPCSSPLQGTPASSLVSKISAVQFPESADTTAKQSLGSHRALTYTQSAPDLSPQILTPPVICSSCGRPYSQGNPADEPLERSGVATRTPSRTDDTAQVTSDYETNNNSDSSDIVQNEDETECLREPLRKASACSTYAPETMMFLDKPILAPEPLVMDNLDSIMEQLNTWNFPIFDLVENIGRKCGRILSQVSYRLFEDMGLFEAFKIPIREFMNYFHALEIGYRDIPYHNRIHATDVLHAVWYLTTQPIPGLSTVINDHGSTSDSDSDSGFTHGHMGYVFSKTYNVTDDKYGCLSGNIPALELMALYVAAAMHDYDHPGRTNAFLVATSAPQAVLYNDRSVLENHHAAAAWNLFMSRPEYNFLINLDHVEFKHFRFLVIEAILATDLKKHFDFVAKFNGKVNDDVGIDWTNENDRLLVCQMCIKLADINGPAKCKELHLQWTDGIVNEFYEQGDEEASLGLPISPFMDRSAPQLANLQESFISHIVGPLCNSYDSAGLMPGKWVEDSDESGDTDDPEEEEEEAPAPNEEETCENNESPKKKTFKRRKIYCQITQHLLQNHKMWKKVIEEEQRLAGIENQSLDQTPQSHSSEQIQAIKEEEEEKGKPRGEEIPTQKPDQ
Assay: IMAP fluorescence polarization PDE assay, PDE3A
Type: biochemical
Settings: substrate cGMP; read-out: Phosphodiesterase Inhibition PDE3A cGMP IC50
measuredProperty: pIC50
Numbers only, as −log10 of the molar value.

So what does the record say about pIC50 for COc1cc2ncnc(N3CC[C@@H](Oc4cnc5ccccc5n4)C3)c2cc1OC [PQ-10] ? 6.68
